System: Escherichia coli
EXPERIMENT NOTES: Antimicrobial activity against Escherichia coli DH5[alpha] harboring pBCSK plasmid by agar dilution method
Format: functional
MEASURED ENDPOINT: MIC (µg/mL)

| COMPOUND | ASSAY SYSTEM | MEASURED ENDPOINT | RESULT UNITS | ENDPOINT VALUE |
| --- | --- | --- | --- | --- |
| CCN1CCN(C(=O)N[C@@H](C(=O)N[C@@H]2C(=O)N3[C@@H]2SC(C)(C)[C@@H]3C(=O)O)c2ccccc2)C(=O)C1=O [PIPERACILLIN] | Escherichia coli | MIC | µg/mL | 1 |
| CC(C)(O/N=C(\C(=O)N[C@@H]1C(=O)N2C(C(=O)[O-])=C(C[n+]3ccccc3)CS[C@H]12)c1csc(N)n1)C(=O)O [CEFTAZIDIME] | Escherichia coli | MIC | µg/mL | 0.5 |
| CC1(C)S[C@@H]2[C@H](NC(=O)[C@H](C(=O)O)c3ccsc3)C(=O)N2[C@H]1C(=O)O [TICARCILLIN] | Escherichia coli | MIC | µg/mL | 2 |
| CO/N=C(\C(=O)N[C@@H]1C(=O)N2C(C(=O)O)=C(COC(N)=O)CS[C@H]12)c1ccco1 [CEFUROXIME] | Escherichia coli | MIC | µg/mL | 2 |

====

Test system: Escherichia coli
EXPERIMENT NOTES: Antimicrobial activity against Escherichia coli DH5[alpha] transformant harboring pA172 plasmid expressing cephalosporinase CMY-31 by agar dilution method
Assay type: functional
MEASURED ENDPOINT: MIC (µg/mL)

| MOLECULE | MEASURED ENDPOINT | RESULT UNITS | SIGN QUALIFIER | ENDPOINT VALUE |
| --- | --- | --- | --- | --- |
| CC1(C)S[C@@H]2[C@H](NC(=O)[C@H](N)c3ccc(O)cc3)C(=O)N2[C@H]1C(=O)O | MIC | µg/mL | > | 256 |
| CC1(C)S[C@@H]2[C@H](NC(=O)[C@H](C(=O)O)c3ccsc3)C(=O)N2[C@H]1C(=O)O | MIC | µg/mL | > | 256 |
| CO/N=C(\C(=O)N[C@@H]1C(=O)N2C(C(=O)[O-])=C(C[N+]3(C)CCCC3)CS[C@H]12)c1csc(N)n1 | MIC | µg/mL | = | 0.12 |
| CO/N=C(\C(=O)N[C@@H]1C(=O)N2C(C(=O)O)=C(COC(C)=O)CS[C@H]12)c1csc(N)n1 | MIC | µg/mL | = | 32 |
| CCN1CCN(C(=O)N[C@@H](C(=O)N[C@@H]2C(=O)N3[C@@H]2SC(C)(C)[C@@H]3C(=O)O)c2ccccc2)C(=O)C1=O | MIC | µg/mL | = | 128 |
| CO[C@@]1(NC(=O)Cc2cccs2)C(=O)N2C(C(=O)O)=C(COC(N)=O)CS[C@@H]21 | MIC | µg/mL | > | 256 |
| C[C@@H](O)[C@H]1C(=O)N2C(C(=O)O)=C(SCCNC=N)C[C@H]12 [IMIPENEM ANHYDROUS] | MIC | µg/mL | = | 0.5 |
| CO/N=C(\C(=O)N[C@@H]1C(=O)N2C(C(=O)O)=C(COC(N)=O)CS[C@H]12)c1ccco1 | MIC | µg/mL | > | 256 |
| CO/N=C(\C(=O)N[C@@H]1C(=O)N2C(C(=O)O)=C(CSc3nc(=O)c(O)nn3C)CS[C@H]12)c1csc(N)n1 | MIC | µg/mL | = | 32 |
| CC(C)(O/N=C(\C(=O)N[C@@H]1C(=O)N2C(C(=O)[O-])=C(C[n+]3ccccc3)CS[C@H]12)c1csc(N)n1)C(=O)O | MIC | µg/mL | = | 128 |

====

Quick reference: MIC of the listed items.
Test system: Escherichia coli
EXPERIMENT NOTES: Antimicrobial activity against Escherichia coli DH5[alpha] harboring pB-c36 plasmid expressing cephalosporinase CMY-36 by agar dilution method
Type: functional

| MOLECULE | MIC |
| --- | --- |
| CO/N=C(\C(=O)N[C@@H]1C(=O)N2C(C(=O)O)=C(COC(C)=O)CS[C@H]12)c1csc(N)n1 | 128 µg/mL |
| CC(C)(O/N=C(\C(=O)N[C@@H]1C(=O)N2C(C(=O)[O-])=C(C[n+]3ccccc3)CS[C@H]12)c1csc(N)n1)C(=O)O | 256 µg/mL |
| C[C@@H](O)[C@H]1C(=O)N2C(C(=O)O)=C(SCCNC=N)C[C@H]12 [IMIPENEM ANHYDROUS] | 0.5 µg/mL |
| CO/N=C(\C(=O)N[C@@H]1C(=O)N2C(C(=O)[O-])=C(C[N+]3(C)CCCC3)CS[C@H]12)c1csc(N)n1 | 0.25 µg/mL |
| CC1(C)S[C@@H]2[C@H](NC(=O)[C@H](N)c3ccc(O)cc3)C(=O)N2[C@H]1C(=O)O | > 256 µg/mL |
| CO[C@@]1(NC(=O)Cc2cccs2)C(=O)N2C(C(=O)O)=C(COC(N)=O)CS[C@@H]21 | > 256 µg/mL |
| CC1(C)S[C@@H]2[C@H](NC(=O)[C@H](C(=O)O)c3ccsc3)C(=O)N2[C@H]1C(=O)O | > 256 µg/mL |
| CO/N=C(\C(=O)N[C@@H]1C(=O)N2C(C(=O)O)=C(CSc3nc(=O)c(O)nn3C)CS[C@H]12)c1csc(N)n1 | 128 µg/mL |
| CCN1CCN(C(=O)N[C@@H](C(=O)N[C@@H]2C(=O)N3[C@@H]2SC(C)(C)[C@@H]3C(=O)O)c2ccccc2)C(=O)C1=O | 256 µg/mL |
| CO/N=C(\C(=O)N[C@@H]1C(=O)N2C(C(=O)O)=C(COC(N)=O)CS[C@H]12)c1ccco1 | > 256 µg/mL |

====

Tested on: Escherichia coli
EXPERIMENT NOTES: Antimicrobial activity against Escherichia coli DH5[alpha] harboring pBCSK plasmid by agar dilution method
Type: functional
Listed molecules paired with reported MIC
MEASURED ENDPOINT: MIC (µg/mL)

| SMILES CODE | ASSAY SYSTEM | MEASURED ENDPOINT | ENDPOINT VALUE |
| --- | --- | --- | --- |
| CO[C@@]1(NC(=O)Cc2cccs2)C(=O)N2C(C(=O)O)=C(COC(N)=O)CS[C@@H]21 | Escherichia coli | MIC | 4 |
| CO/N=C(\C(=O)N[C@@H]1C(=O)N2C(C(=O)O)=C(COC(C)=O)CS[C@H]12)c1csc(N)n1 | Escherichia coli | MIC | 0.12 |
| CC1(C)S[C@@H]2[C@H](NC(=O)[C@H](N)c3ccc(O)cc3)C(=O)N2[C@H]1C(=O)O | Escherichia coli | MIC | 2 |
| CO/N=C(\C(=O)N[C@@H]1C(=O)N2C(C(=O)O)=C(CSc3nc(=O)c(O)nn3C)CS[C@H]12)c1csc(N)n1 | Escherichia coli | MIC | 0.12 |
